Entries and their 3H Thymidine up-take into CTLL2 cells, mean ± SE (4 wells) values follow.
tested on: T-cell-rich lymphocytes / IL-2-dependent CTLL2 cells; assay: Cell response test: IL-2 activity (3H thymidine up-take of CTLL2 cells) in supernatant of spleen cells of mice immunized with R4 peptide (R4-KLH); assay type: cell-based, mouse; details: mice immunized with R4 peptide; stimulant 2 μg/ml; supernatant dilution 1/50

// worked examples, 3H Thymidine up-take into CTLL2 cells, mean ± SE (4 wells) included
- sequence.text: "LAPPRPRSELVFLSV (LAPPRPRSQLVFLSV) [GD3R1, tested as phage clone, MAP form or peptide]"
  measurement.target: "T-cell-rich lymphocytes / IL-2-dependent CTLL2 cells"
  result: "220 ± 40"
- sequence.text: "RHAYRSMAEWGFLYS (RHAYRSMAQWGFLYS) [GD3R4, tested as phage clone, MAP form or peptide]"
  measurement.target: "T-cell-rich lymphocytes / IL-2-dependent CTLL2 cells"
  result: "2742 ± 751"
- sequence.text: "GLAPPDYAERFELLS [GD3R3, tested as phage clone, MAP form or peptide]"
  measurement.target: "T-cell-rich lymphocytes / IL-2-dependent CTLL2 cells"
  result: "736 ± 137"

Read the next record carefully.
[Q] Quick one: 3H Thymidine up-take into CTLL2 cells, mean ± SE (4 wells) for PHFDSLLYPCELLGC (PHFDSLLYPCQLLGC) [GD3R2, tested as phage clone, MAP form or peptide] ?
[A] 163 ± 41

====

tested on: T-cell-rich lymphocytes / IL-2-dependent CTLL2 cells; test: Cell response test: IL-2 activity (3H thymidine up-take of CTLL2 cells) in supernatant of spleen cells of mice immunized with GD3; format: cell-based, mouse; settings: mice immunized with GD3; stimulant 2 μg/ml; supernatant dilution ½; further: unit not given here
observation.type: 3H Thymidine up-take into CTLL2 cells, mean ± SE (4 wells)
Would you mind answering with just the numeric figure?

Example entries begin here.
- sequence.text: "PHFDSLLYPCELLGC (PHFDSLLYPCQLLGC) [GD3R2, tested as phage clone, MAP form or peptide]"
  numeric.result: 3057
- sequence.text: "RHAYRSMAEWGFLYS (RHAYRSMAQWGFLYS) [GD3R4, tested as phage clone, MAP form or peptide]"
  numeric.result: 12671

[Q] Reported 3H Thymidine up-take into CTLL2 cells, mean ± SE (4 wells), sequence GLAPPDYAERFELLS [GD3R3, tested as phage clone, MAP form or peptide] : ____
[A] 5791

[Q] Report 3H Thymidine up-take into CTLL2 cells, mean ± SE (4 wells) for LAPPRPRSELVFLSV (LAPPRPRSQLVFLSV) [GD3R1, tested as phage clone, MAP form or peptide] please.
[A] 3219

====

system: T-cell-rich lymphocytes / IL-2-dependent CTLL2 cells; experiment: Cell response test: IL-2 activity (3H thymidine up-take of CTLL2 cells) in supernatant of spleen cells of mice immunized with R4 peptide (R4-KLH); assay type: cell-based, mouse; details: mice immunized with R4 peptide; stimulant 5 μg/ml; supernatant dilution ½
Let's look at some sequences and their measured 3H Thymidine up-take into CTLL2 cells, mean ± SE (4 wells).
Could you respond with only the numeric value?

The cases that follow already have their 3H Thymidine up-take into CTLL2 cells, mean ± SE (4 wells) on record.
- sequence.text: "LAPPRPRSELVFLSV (LAPPRPRSQLVFLSV) [GD3R1, tested as phage clone, MAP form or peptide]"
  numeric.result: 3469
- sequence.text: "RHAYRSMAEWGFLYS (RHAYRSMAQWGFLYS) [GD3R4, tested as phage clone, MAP form or peptide]"
  numeric.result: 18692
- sequence.text: "PHFDSLLYPCELLGC (PHFDSLLYPCQLLGC) [GD3R2, tested as phage clone, MAP form or peptide]"
  numeric.result: 2849

[Q] Entry under review: GLAPPDYAERFELLS [GD3R3, tested as phage clone, MAP form or peptide] . Reported 3H Thymidine up-take into CTLL2 cells, mean ± SE (4 wells)?
[A] 7898
